src = patent US8815852B2

system: male ICR mouse; assay: Acetic acid-induced writhing test in mouse; format: in vivo; conditions: Mus musculus, po, 1 h, at 10 po (method: 10 mg/kg oral, 1 hour before acetic acid); read-out: AA Writhing: Suppression ratio of Pain response

| compound | unit.text | inhibition in vivo at 10 mg/kg |
| --- | --- | --- |
| COc1ccc(N2CCN(CCC(OC(N)=O)c3cccc4ccccc34)CC2)cc1 (centres unmarked) | % | 16 |
| NC(=O)OC(CCN1CCN(c2ccccc2)CC1)c1cccc(Cl)c1 (centres unmarked) | % | 59 |
| COc1ccc(N2CCN(CCC(OC(N)=O)c3ccc4ccccc4c3)CC2)cc1 (centres unmarked) | % | 64 |
| COc1ccc(N2CCN(CCC(OC(N)=O)c3cccc(F)c3)CC2)cc1 (centres unmarked) | % | 57 |
| NC(=O)OC(CCN1CCN(c2ccc(O)cc2)CC1)c1ccc(Cl)c(C(F)(F)F)c1 (centres unmarked) | % | 53 |

====

Molecular target: UniProt:P19327
Sequence (P19327 whole entry): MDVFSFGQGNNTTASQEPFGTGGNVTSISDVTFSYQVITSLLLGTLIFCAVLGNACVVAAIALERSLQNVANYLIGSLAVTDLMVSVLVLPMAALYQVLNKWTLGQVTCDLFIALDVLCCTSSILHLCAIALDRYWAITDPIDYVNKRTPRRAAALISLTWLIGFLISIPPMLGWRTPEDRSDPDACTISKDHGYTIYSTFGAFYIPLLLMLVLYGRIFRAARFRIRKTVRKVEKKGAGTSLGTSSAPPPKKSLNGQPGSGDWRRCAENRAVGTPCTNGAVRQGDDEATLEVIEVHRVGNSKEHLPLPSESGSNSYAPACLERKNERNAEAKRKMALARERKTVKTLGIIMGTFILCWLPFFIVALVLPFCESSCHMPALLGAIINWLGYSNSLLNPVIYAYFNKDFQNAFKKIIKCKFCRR
Assay: Binding to 5-HT1A receptor ([3H]-8-OH-DPAT, rat cortical membranes)
Parameters: species or system Sprague-Dawley (SD) rats
Settings: 1 h; at 1 uM; read-out: 5-HT1A: Suppression
Procedure: Binding to 5-HT1A Receptor 6-week-old Sprague-Dawley (SD) rats were anesthetized in an ether container for 5 minutes, brains were separated from rats, and cortical regions were then separated from the brains of the rats. […] The competitivity of the compound to [3H]-8-OH-DPAT was determined by taking the membrane filter and measuring the radioactivity of the membrane filter in a scintillation counter, and an IC50 value was determined by measuring the increasing concentration of the compound. […]
Output 1 for inhibition at 1 µM not less than 70%; output 0 otherwise.

| compound | class.label |
| --- | --- |
| Cc1ccccc1N1CCN(CCC(OC(N)=O)c2ccc(F)cc2)CC1 (centres unmarked) | 1 |
| Cc1ccc(C(CCN2CCN(c3ccccc3)CC2)OC(N)=O)cc1 (centres unmarked) | 0 |
| COc1ccc(C(CCN2CCN(c3ccccc3)CC2)OC(N)=O)cc1 (centres unmarked) | 0 |
| COc1ccccc1N1CCN(CCC(OC(N)=O)c2ccc(F)cc2)CC1 (centres unmarked) | 1 |
| NC(=O)OC(CCN1CCN(c2ccc(F)cc2)CC1)c1ccc(F)cc1 (centres unmarked) | 0 |

====

Known inhibition in vivo at 10 mg/kg of a selection of compounds
Test system: male ICR mouse
Test: Acetic acid-induced writhing test in mouse
Type: in vivo
Conditions: Mus musculus, po, 1 h, at 10 po (method: 10 mg/kg oral, 1 hour before acetic acid); read-out: AA Writhing: Suppression ratio of Pain response
Protocol: 2. Acetic Acid-Induced Writhing Test in Mouse An acetic acid-induced writhing test is one of models for measuring an analgesic effect of drugs. […] Right after the administration of acetic acid, the male ICR mouse was put into an empty cage, and the number of writhing behaviors of the mice was counted for 10 minutes. […] The ED50 (median effective dose) was determined by calculating the suppression ratio of pain response in at least three doses of test materials and subjecting to the linear regression.
property.label: inhibition in vivo at 10 mg/kg (%)

| compound | unit.text | quantitative.readout |
| --- | --- | --- |
| COc1ccc(N2CCN(CCC(OC(N)=O)c3ccc(F)c(F)c3)CC2)cc1 (stereo not drawn) [Example 52] | % | 61 |
| COc1ccc(N2CCN(CCC(OC(N)=O)c3ccc(Cl)cc3)CC2)cc1 (stereo not drawn) [Example 71] | % | 61 |
| COc1ccc(N2CCN(CCC(OC(N)=O)c3ccccc3[N+](=O)[O-])CC2)cc1 (stereo not drawn) [Example 64] | % | 59 |
